assay_overview: APR_HepG2_P-H2AX_72hr: Apredica 72-hour HepG2 Assay for H2AX Phosphorylation (AID 2282916);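 note: phospho-histone H2A.x immunostain intensity per cell marking DNA damage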
condition_set: imaging, actives raise or lower the signal
Activity calls are given as the source filed them. Rule for the calls: active = hit-call score of the fitted dose curve at least 0.9, where 1 is the maximum; inactive = score below 0.9.
In this exercise, the only acceptable responses are active, inactive

Hi team, can someone confirm the assay call for `COc1cc(-c2nc(NC(=O)c3cc4cc(C)cc(C)c4n3CC(=O)O)sc2CCC2CCCCC2)c(OC)cc1Cl` ?
inactive

Hi team, can someone confirm the assay call for `FC(F)(F)C(F)(F)C(F)(F)C(F)(F)C(F)(F)C(F)(F)CCI` ?
inactive

Hi team, can someone confirm the assay call for `O=[N+]([O-])C(CO)(CO)CO` ?
active

Hi team, can someone confirm the assay call for `Cc1ccccc1Cl` ?
inactive

Hi team, can someone confirm the assay call for `Cc1ccc(C)c(O)c1C` ?
inactive

Hi team, can someone confirm the assay call for `CCCCCCOCCO` ?
inactive

Hi team, can someone confirm the assay call for `CCCCCCCCCCCCCCCCCC(=O)O` ?
inactive

Hi team, can someone confirm the assay call for `CCCCCCCCCCCCCO` ?
active

Hi team, can someone confirm the assay call for `CC1(C)NC(=O)NC1=O` ?
inactive

Hi team, can someone confirm the assay call for `CCCCCCC(=O)OCC` ?
inactive

Hi team, can someone confirm the assay call for Cc1nc(-c2ccc3c(c2)CCN(CCC2CCC(NC(=O)/C=C/c4ccc(F)cc4)CC2)CC3)no1 (stereo not given) ?
active

Hi team, can someone confirm the assay call for `Cc1cc(=O)[nH]c(=S)[nH]1` ?
inactive

Hi team, can someone confirm the assay call for `O=C(OCCCCCOC(=O)c1ccccc1)c1ccccc1` ?
inactive

Hi team, can someone confirm the assay call for `C[C@]12C=CC(=O)C=C1CC[C@@H]1[C@@H]2C(=O)C[C@@]2(C)[C@H]1CC[C@]2(O)C(=O)CO` ?
inactive

Hi team, can someone confirm the assay call for `CC(=O)Oc1ccccc1C(=O)O` ?
inactive

Hi team, can someone confirm the assay call for `Cc1cc(NC(=O)C(=O)O)cc(C)c1Oc1ccc(O)c2c1CCC2` ?
inactive

Hi team, can someone confirm the assay call for `CCOc1ccc2c(c1)C(C)=CC(C)(C)N2` ?
active

Hi team, can someone confirm the assay call for `CCCCCCCCCCC` ?
inactive

Hi team, can someone confirm the assay call for `O=C(N[C@@H](Cc1ccccc1)[C@@H](O)C(=O)N1C[C@@H](O)[C@@H](O)C1)c1cc2cc(Cl)ccc2[nH]1` ?
active

Hi team, can someone confirm the assay call for `COc1ccc(S(=O)(=O)N2C(=O)[C@@](c3ccccc3OC)(N3C[C@H](O)C[C@H]3C(=O)N(C)C)c3cc(Cl)ccc32)c(OC)c1` ?
active

Hi team, can someone confirm the assay call for `CCCc1cc(=O)[nH]c(=S)[nH]1` ?
inactive

Hi team, can someone confirm the assay call for `COC(=O)c1ccc(O)cc1` ?
inactive

Hi team, can someone confirm the assay call for CCCCC(CC)COC(=O)CC(C(=O)OCC(CC)CCCC)S(=O)(=O)O (stereo not given) ?
active

Hi team, can someone confirm the assay call for `Nc1nc(N)c2nc(CNc3ccc(C(=O)N[C@@H](CCC(=O)O)C(=O)O)cc3)cnc2n1` ?
inactive

Hi team, can someone confirm the assay call for `Cc1c(C(=O)O)c(O)cc2c1C(=O)c1c(O)c([C@@H]3O[C@H](CO)[C@@H](O)[C@H](O)[C@H]3O)c(O)c(O)c1C2=O` ?
inactive

Hi team, can someone confirm the assay call for `O=C(O)CCCCC(=O)O` ?
inactive

Hi team, can someone confirm the assay call for `OC[C@@H](O)[C@@H](O)[C@H](O)[C@H](O)CO` ?
inactive

Hi team, can someone confirm the assay call for `Nc1ccc2c(c1)C(=O)c1ccccc1C2=O` ?
active

Hi team, can someone confirm the assay call for `CC(C)c1ccc(C(=O)N=C(N)N)cc1S(C)(=O)=O` ?
inactive

Hi team, can someone confirm the assay call for `C=CCc1ccc(O)c(OC)c1` ?
inactive

Hi team, can someone confirm the assay call for `COc1ccc2c(c1)c(CC(=O)O)c(C)n2C(=O)c1ccc(Cl)cc1` ?
inactive

Hi team, can someone confirm the assay call for `Cc1ccc(C(C)C)c(O)c1` ?
inactive

Hi team, can someone confirm the assay call for `CN1CCCC1=O` ?
inactive

Hi team, can someone confirm the assay call for `CCCCCCCCCCO` ?
inactive

Hi team, can someone confirm the assay call for `COc1ccc(C)cc1N` ?
inactive

Hi team, can someone confirm the assay call for `Cc1nc(C)nc(N2C[C@@H](C)N(c3ccnc([C@@H](C)O)n3)[C@@H](C)C2)n1` ?
inactive

Hi team, can someone confirm the assay call for `Cc1oc(-c2ccccc2)nc1CCOc1cccc2c1ccn2CCC(=O)O` ?
inactive

Hi team, can someone confirm the assay call for `C=CCOC(=O)c1ccccc1C(=O)OCC=C` ?
inactive

Hi team, can someone confirm the assay call for `CC=Cc1ccc(O)c(OC)c1` ?
inactive

Hi team, can someone confirm the assay call for `CCNc1cccc(C)c1` ?
inactive

Hi team, can someone confirm the assay call for `Oc1ccc2c(c1)OC[C@@H](N1CCC(O)(c3ccc(F)cc3)CC1)[C@H]2O` ?
inactive

Hi team, can someone confirm the assay call for `O=c1[nH]cc(F)c(=O)[nH]1` ?
inactive

Hi team, can someone confirm the assay call for `Nc1ccc(S(=O)(=O)c2ccc(N)cc2)cc1` ?
inactive

Hi team, can someone confirm the assay call for `COc1cccc2c1C(=O)c1c(O)c3c(c(O)c1C2=O)C[C@@](O)(C(=O)CO)C[C@@H]3O[C@H]1C[C@H](N)[C@H](O)[C@H](C)O1` ?
active

Hi team, can someone confirm the assay call for CC(CO)OC(C)CO (stereo not given) (tested in a mixture with another compound) ?
inactive

Hi team, can someone confirm the assay call for `CNC(=O)[C@H]1O[C@@H](n2cnc3c(NCc4cc(Cl)ccc4OCc4cc(C)no4)ncnc32)[C@H](O)[C@@H]1N` ?
inactive

Hi team, can someone confirm the assay call for `CCCCN(CCCC)CCCC` ?
inactive

Hi team, can someone confirm the assay call for `CCCCCC(=O)O` ?
inactive

Hi team, can someone confirm the assay call for `C1CCC(SSC2CCCCC2)CC1` ?
inactive

Hi team, can someone confirm the assay call for `C[Si]1(C)O[Si](C)(C)O[Si](C)(C)O[Si](C)(C)O1` ?
inactive

###

Read-out: Urokinase-type plasminogen activator receptor (uPAR), PLAUR (gene 5329)
assay_overview: BSK_CASM3C_uPAR: BioMAP Diversity Plus: CASM3C Assay for Urokinase-type plasminogen activator receptor (uPAR) Biomarker Activity (AID 2283054);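 note: cell-surface uPAR protein level quantified by ELISA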
condition_set: primary human coronary artery smooth muscle cells; actives raise or lower the signal
Active and inactive are the calls of the source. The calls were made as follows: active = hit-call score of the fitted dose curve at least 0.9, where 1 is the maximum; inactive = score below 0.9.
readout: AC50

# compound `Cc1oc(-c2ccccc2)nc1CCOc1cccc2c1ccn2CCC(=O)O` ; its AC50 = inactive

# compound CC(CO)OC(C)CO (stereo not drawn) (tested in a mixture with another compound) ; its AC50 = inactive

# compound `Nc1ccc2c(c1)C(=O)c1ccccc1C2=O` ; its AC50 = 20 µM (active)

###

test_system: Estrogen receptor (Homo sapiens)
assay_overview: CCTE_Deisenroth_AIME_384WELL_LUC_Inactive: CCTE's 384-well Estrogen Receptor Transactivation Assay without AIME metabolic competence (ERTA luciferase; metabolism negative), Deisenroth Lab (AID 2284038);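 note: VM7Luc4E2 breast cells given medium preincubated 2 h with S9-free microspheres; hits raise estrogen receptor luciferase signal so potencies reflect agonists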
Results filed as inconclusive are left out. The source made the active and inactive calls. The calls were made as follows: active = hit-call score of the fitted dose curve at least 0.9, where 1 is the maximum; inconclusive = response in the unintended direction; inactive = score below 0.9.
readout: outcome

In the examples that follow, each entry is paired with its recorded outcome.
# compound `C[Si]1(C)O[Si](C)(C)O[Si](C)(C)O[Si](C)(C)O1` ; its outcome = inactive

# compound `CCNc1cccc(C)c1` ; its outcome = inactive

# compound CC1(C)CC(N=C=O)CC(C)(CN=C=O)C1 (stereo not given) ; its outcome = inactive

# compound `C[C@]12C=CC(=O)C=C1CC[C@@H]1[C@@H]2C(=O)C[C@@]2(C)[C@H]1CC[C@]2(O)C(=O)CO` ; its outcome = inactive

# compound `CC1(C)NC(=O)NC1=O` ; its outcome = inactive

# compound `Cc1cccc(C)c1O` ; its outcome = inactive

# compound `CNC(=O)[C@H]1O[C@@H](n2cnc3c(NCc4cc(Cl)ccc4OCc4cc(C)no4)ncnc32)[C@H](O)[C@@H]1N` ; its outcome = inactive

# compound `NCCO` ; its outcome = inactive

# compound `Cc1ccc(C)c(O)c1C` ; its outcome = inactive

# compound `C=CCc1ccc(O)c(OC)c1` ; its outcome = inactive

---
# compound `CC1=C(/C=C/C(C)=C/C=C/C(C)=C/CO)C(C)(C)CCC1` ; its outcome = inactive

# compound `CCCCCC(=O)O` ; its outcome = inactive

# compound `Cc1ccc(C)c(C)c1` ; its outcome = inactive

# compound `CN1CCCC1=O` ; its outcome = inactive

# compound `O=c1[nH]cc(F)c(=O)[nH]1` ; its outcome = inactive

# compound `Cc1ccc2ncccc2c1` ; its outcome = inactive

# compound `COc1cc(C=O)ccc1O` ; its outcome = inactive
